- Test system: 777334-354-R2-J4-PDC tumor spheroids with HUVEC/MSC, viability
- Experiment summary: Anticancer human tumor 777334-354-R2-J4-PDC patient-derived pancreatic adenocarcinoma cell line growth inhibition [GQUAD]
- Experimental parameters: second compound 0.0316 µM; first compound 0.1 µM; active compounds read low
So I've got a bunch of molecules here, and I need their viability, T/C values.
Answers are plain numbers, in %.

[[record]]
molecule = "O=C(c1cc(Cc2n[nH]c(=O)c3ccccc23)ccc1F)N1CCN(C(=O)C2CC2)CC1 + Cc1[nH]c2ccc(F)cc2c1-c1nc2c3cccnc3c3ncccc3c2[nH]1"
system_under_test = "777334-354-R2-J4-PDC tumor spheroids with HUVEC/MSC, viability"
reported_result = 95.8

[[record]]
molecule = "CC1COCCN1c1cc(-c2ccnn2C)c2ccnc(-c3ccn[nH]3)c2n1 (stereo unspecified) + CN(C)c1ccc(Nc2c3ccc(NC(=O)CCN4CCCC4)cc3nc3cc(NC(=O)CCN4CCCC4)ccc23)cc1"
system_under_test = "777334-354-R2-J4-PDC tumor spheroids with HUVEC/MSC, viability"
reported_result = 84.2

[[record]]
molecule = "O=c1[nH]cc(F)c(=O)[nH]1 + CN(C)c1ccc(Nc2c3ccc(NC(=O)CCN4CCCC4)cc3nc3cc(NC(=O)CCN4CCCC4)ccc23)cc1"
system_under_test = "777334-354-R2-J4-PDC tumor spheroids with HUVEC/MSC, viability"
reported_result = 92

[[record]]
molecule = "Cc1cccc(N(C)C(=O)C2C(O)CCN2c2nc(C)cc(C(F)(F)F)c2C#N)c1 (stereo unspecified) + Cc1[nH]c2ccc(F)cc2c1-c1nc2c3cccnc3c3ncccc3c2[nH]1"
system_under_test = "777334-354-R2-J4-PDC tumor spheroids with HUVEC/MSC, viability"
reported_result = 104

[[record]]
molecule = "COc1ncnc(C2CC2)c1-c1ncc2cnn(Cc3ccc(-c4nc(C(F)(F)F)cn4C(C)C)cc3)c2n1 + Cc1[nH]c2ccc(F)cc2c1-c1nc2c3cccnc3c3ncccc3c2[nH]1"
system_under_test = "777334-354-R2-J4-PDC tumor spheroids with HUVEC/MSC, viability"
reported_result = 96.9


Now look at this entry.
Input CC1COCCN1c1cc(C2(S(C)(=N)=O)CC2)nc(-c2ccnc3[nH]ccc23)n1 (stereo unspecified) + Cc1cnc(CNC(=O)c2c(=O)c3ccc(N4CCCN(C)CC4)nc3n3c2sc2ccccc23)cn1 . Output viability, T/C: 85.7

----------
- Tested on: 777334-354-R2-J4-PDC tumor spheroids with HUVEC/MSC, viability
- Experiment summary: Anticancer human tumor 777334-354-R2-J4-PDC cell line growth inhibition [GQUAD];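 also: spheroids exposed to compounds for 7 days before readout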
- Experimental parameters: second compound 10 µM; first compound 0.0316 µM; active compounds read low
- Text: DNA G-quadruplex Stabilizer Agents in Combinations in Complex Spheroids A high-throughput screen of multi-cell type tumor spheroids was designed to identify active combinations of DNA G-quadruplex stabilizer agents and targeted small molecules. […] Compounds. […] If the clinical Cmax for an agent had not been determined, the highest concentration tested was 10 microM. […]
Consider the following compounds; for each one, report its viability, T/C.
Numbers only, in %.

Some solved cases for reference:
[[record]]
compound = "COc1cccc2c1C(=O)c1c(O)c3c(c(O)c1C2=O)CC(O)(C(=O)CO)CC3OC1CC(N)C(O)C(C)O1 (stereo not drawn) + Cc1[nH]c2ccc(F)cc2c1-c1nc2c3cccnc3c3ncccc3c2[nH]1"
system_under_test = "777334-354-R2-J4-PDC tumor spheroids with HUVEC/MSC, viability"
scale_unit = "%"
reported_result = 32

[[record]]
compound = "COc1cccc2c1C(=O)c1c(O)c3c(c(O)c1C2=O)CC(O)(C(=O)CO)CC3OC1CC(N)C(O)C(C)O1 (stereo not drawn) + Cc1cnc(CNC(=O)c2c(=O)c3ccc(N4CCCN(C)CC4)nc3n3c2sc2ccccc23)cn1"
system_under_test = "777334-354-R2-J4-PDC tumor spheroids with HUVEC/MSC, viability"
scale_unit = "%"
reported_result = 57.3


Consider the record given below.
For reference, reported viability, T/C for C=CCn1c(=O)c2cnc(Nc3ccc(N4CCN(C)CC4)cc3)nc2n1-c1cccc(C(C)(C)O)n1 + CN(C)c1ccc(Nc2c3ccc(NC(=O)CCN4CCCC4)cc3nc3cc(NC(=O)CCN4CCCC4)ccc23)cc1 stands at 90.1

----------
For each of the molecules below, state its viability, T/C.
- Test system: 777334-354-R2-J4-PDC tumor spheroids with HUVEC/MSC, viability
- Experiment summary: Anticancer human tumor 777334-354-R2-J4-PDC cell line growth inhibition [GQUAD];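 also: spheroids exposed to compounds for 7 days before readout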
- Experimental parameters: second compound 0.1 µM; first compound 0.000999 µM; active compounds read low
Give bare numbers, in %.

[[record]]
molecule = "Cc1[nH]c2ccccc2c1CCNCc1ccc(/C=C/C(=O)NO)cc1 + Cc1cnc(CNC(=O)c2c(=O)c3ccc(N4CCCN(C)CC4)nc3n3c2sc2ccccc23)cn1"
reported_result = 83.1

[[record]]
molecule = "Cc1[nH]c2ccccc2c1CCNCc1ccc(/C=C/C(=O)NO)cc1 + Cc1[nH]c2ccc(F)cc2c1-c1nc2c3cccnc3c3ncccc3c2[nH]1"
reported_result = 103

[[record]]
molecule = "Cn1ncnc1[C@H]1c2n[nH]c(=O)c3cc(F)cc(c23)N[C@@H]1c1ccc(F)cc1 + CN(C)c1ccc(Nc2c3ccc(NC(=O)CCN4CCCC4)cc3nc3cc(NC(=O)CCN4CCCC4)ccc23)cc1"
reported_result = 98.7

[[record]]
molecule = "CCc1c2c(nc3ccc(O)cc13)-c1cc3c(c(=O)n1C2)COC(=O)[C@]3(O)CC + CN(C)c1ccc(Nc2c3ccc(NC(=O)CCN4CCCC4)cc3nc3cc(NC(=O)CCN4CCCC4)ccc23)cc1"
reported_result = 85.1

[[record]]
molecule = "Cc1[nH]c2ccccc2c1CCNCc1ccc(/C=C/C(=O)NO)cc1 + CN(C)c1ccc(Nc2c3ccc(NC(=O)CCN4CCCC4)cc3nc3cc(NC(=O)CCN4CCCC4)ccc23)cc1"
reported_result = 108


Would you mind giving viability, T/C for every molecule in the list below?
1. Cn1ncnc1[C@H]1c2n[nH]c(=O)c3cc(F)cc(c23)N[C@@H]1c1ccc(F)cc1 + Cc1cnc(CNC(=O)c2c(=O)c3ccc(N4CCCN(C)CC4)nc3n3c2sc2ccccc23)cn1
2. CC[C@@]1(O)C(=O)OCc2c1cc1n(c2=O)Cc2cc3c(CN(C)C)c(O)ccc3nc2-1 + Cc1[nH]c2ccc(F)cc2c1-c1nc2c3cccnc3c3ncccc3c2[nH]1
3. Cn1ncnc1[C@H]1c2n[nH]c(=O)c3cc(F)cc(c23)N[C@@H]1c1ccc(F)cc1 + Cc1[nH]c2ccc(F)cc2c1-c1nc2c3cccnc3c3ncccc3c2[nH]1
4. CC[C@@]1(O)C(=O)OCc2c1cc1n(c2=O)Cc2cc3c(CN(C)C)c(O)ccc3nc2-1 + CN(C)c1ccc(Nc2c3ccc(NC(=O)CCN4CCCC4)cc3nc3cc(NC(=O)CCN4CCCC4)ccc23)cc1
5. CC[C@@]1(O)C(=O)OCc2c1cc1n(c2=O)Cc2cc3c(CN(C)C)c(O)ccc3nc2-1 + Cc1cnc(CNC(=O)c2c(=O)c3ccc(N4CCCN(C)CC4)nc3n3c2sc2ccccc23)cn1
6. CCc1c2c(nc3ccc(O)cc13)-c1cc3c(c(=O)n1C2)COC(=O)[C@]3(O)CC + Cc1cnc(CNC(=O)c2c(=O)c3ccc(N4CCCN(C)CC4)nc3n3c2sc2ccccc23)cn1
7. CCc1c2c(nc3ccc(O)cc13)-c1cc3c(c(=O)n1C2)COC(=O)[C@]3(O)CC + Cc1[nH]c2ccc(F)cc2c1-c1nc2c3cccnc3c3ncccc3c2[nH]1

86.4
100
110
106
102
84.4
92.8

----------
- Tested on: 777334-354-R2-J4-PDC tumor spheroids with HUVEC/MSC, viability
- Experiment summary: Anticancer human tumor 777334-354-R2-J4-PDC cell line growth inhibition [GQUAD];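 also: spheroids exposed to compounds for 7 days before readout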
- Experimental parameters: second compound 10 µM; first compound 0.0316 µM; active compounds read low
Answer each item with its documented viability, T/C.
Give bare numbers, in %.

Some solved entries appear below for comparison.
[[record]]
compound = "C=CC(=O)N1CCN(c2nc(=O)n(-c3c(C)ccnc3C(C)C)c3nc(-c4c(O)cccc4F)c(F)cc23)C(C)C1 (stereo not given) + CN(C)c1ccc(Nc2c3ccc(NC(=O)CCN4CCCC4)cc3nc3cc(NC(=O)CCN4CCCC4)ccc23)cc1"
reported_result = 76.7

[[record]]
compound = "C=CC(=O)N1CCN(c2nc(=O)n(-c3c(C)ccnc3C(C)C)c3nc(-c4c(O)cccc4F)c(F)cc23)C(C)C1 (stereo not given) + Cc1[nH]c2ccc(F)cc2c1-c1nc2c3cccnc3c3ncccc3c2[nH]1"
reported_result = 28.9

[[record]]
compound = "O=C(NO)c1cnc(N2CCN(S(=O)(=O)c3ccc4ccccc4c3)CC2)nc1 + CN(C)c1ccc(Nc2c3ccc(NC(=O)CCN4CCCC4)cc3nc3cc(NC(=O)CCN4CCCC4)ccc23)cc1"
reported_result = 66


Look up viability, T/C for the entries below, preserving their order.
1. CC1COCCN1c1cc(-c2ccnn2C)c2ccnc(-c3ccn[nH]3)c2n1 (stereo not given) + Cc1[nH]c2ccc(F)cc2c1-c1nc2c3cccnc3c3ncccc3c2[nH]1
2. CCc1c2c(nc3ccc(O)cc13)-c1cc3c(c(=O)n1C2)COC(=O)[C@]3(O)CC + Cc1cnc(CNC(=O)c2c(=O)c3ccc(N4CCCN(C)CC4)nc3n3c2sc2ccccc23)cn1

1: 33.5; 2: 27.9
